Recorded measurements of glycan array binding signal (z-score), one per entry
system: Gal(b1-4)GlcNAc(b1-2)[Gal(b1-4)GlcNAc(b1-4)]Man(a1-3)[GlcNAc(b1-4)][Gal(b1-4)GlcNAc(b1-2)[Gal(b1-4)GlcNAc(b1-6)]Man(a1-6)]Man(b1-4)GlcNAc(b1-4)GlcNAc
assay-explanation: glycan array binding signal (z-score within array); higher = stronger binding
condition: glycan notation: IUPAC condensed, linker removed
This excerpt belongs to a sample that is enriched for the strongest signals.
No unit in the answer, please; the number alone is enough.

// worked examples, glycan array binding signal (z-score) included
INSERT INTO assay_data (binder, measurement_kind, test_value) VALUES
  ('Clone646PsrP (Streptococcus pneumoniae) (protein) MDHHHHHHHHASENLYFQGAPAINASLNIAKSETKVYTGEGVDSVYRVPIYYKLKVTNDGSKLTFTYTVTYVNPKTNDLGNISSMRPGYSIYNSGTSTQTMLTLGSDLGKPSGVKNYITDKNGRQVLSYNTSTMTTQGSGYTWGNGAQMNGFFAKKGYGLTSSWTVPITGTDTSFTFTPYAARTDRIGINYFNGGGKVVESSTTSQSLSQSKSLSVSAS', 'glycan array binding signal (z-score)', -0.776),
  ('SfaEH (Escherichia coli), Q1RDG5 (protein) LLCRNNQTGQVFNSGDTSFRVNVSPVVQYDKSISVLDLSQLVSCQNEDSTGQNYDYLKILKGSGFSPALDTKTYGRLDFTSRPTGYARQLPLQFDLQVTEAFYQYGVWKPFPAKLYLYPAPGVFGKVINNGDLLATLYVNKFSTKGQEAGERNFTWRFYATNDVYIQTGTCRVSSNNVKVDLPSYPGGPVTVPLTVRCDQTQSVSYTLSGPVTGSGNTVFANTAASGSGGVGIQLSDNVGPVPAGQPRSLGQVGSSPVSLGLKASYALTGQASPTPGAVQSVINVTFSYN', 'glycan array binding signal (z-score)', 1.56),
  ('BC2L-A (Burkholderia cenocepacia), Q1BKJ8_BURCA (protein) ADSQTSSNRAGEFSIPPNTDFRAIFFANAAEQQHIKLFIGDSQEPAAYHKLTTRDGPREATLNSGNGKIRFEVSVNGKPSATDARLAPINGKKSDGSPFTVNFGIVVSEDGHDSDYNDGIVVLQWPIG', 'glycan array binding signal (z-score)', -0.22),
  ('Apa (Mycobacterium tuberculosis), Rv1860 (protein) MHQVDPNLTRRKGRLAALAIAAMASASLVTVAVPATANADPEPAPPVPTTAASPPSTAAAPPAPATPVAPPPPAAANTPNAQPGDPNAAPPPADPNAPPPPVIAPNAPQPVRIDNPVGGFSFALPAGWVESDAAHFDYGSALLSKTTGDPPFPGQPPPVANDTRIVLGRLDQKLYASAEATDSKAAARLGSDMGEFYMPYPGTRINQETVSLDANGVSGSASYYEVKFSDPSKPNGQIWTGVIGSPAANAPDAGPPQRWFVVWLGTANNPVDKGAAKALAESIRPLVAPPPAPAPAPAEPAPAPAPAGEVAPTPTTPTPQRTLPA', 'glycan array binding signal (z-score)', 0.024),
  ('Pwp2 (Candida glabrata) (protein) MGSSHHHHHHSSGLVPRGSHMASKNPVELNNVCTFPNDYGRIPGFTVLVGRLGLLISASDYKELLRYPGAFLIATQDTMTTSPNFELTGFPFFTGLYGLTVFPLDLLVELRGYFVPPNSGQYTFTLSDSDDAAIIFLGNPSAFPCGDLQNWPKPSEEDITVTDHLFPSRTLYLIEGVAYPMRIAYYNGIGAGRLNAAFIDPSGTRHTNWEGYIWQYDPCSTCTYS', 'glycan array binding signal (z-score)', -0.248);

[Q] Requested read-out: glycan array binding signal (z-score). Entry: FimA-N2 (Actinomyces oris) (protein) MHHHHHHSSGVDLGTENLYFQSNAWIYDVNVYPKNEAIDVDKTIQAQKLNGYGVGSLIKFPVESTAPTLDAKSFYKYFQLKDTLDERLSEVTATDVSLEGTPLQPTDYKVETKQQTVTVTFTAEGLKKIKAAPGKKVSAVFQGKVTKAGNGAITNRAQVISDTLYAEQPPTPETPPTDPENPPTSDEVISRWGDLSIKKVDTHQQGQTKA
[A] -0.356

[Q] Also CV-2L (Chromobacterium violaceum), Q7NX84 (protein) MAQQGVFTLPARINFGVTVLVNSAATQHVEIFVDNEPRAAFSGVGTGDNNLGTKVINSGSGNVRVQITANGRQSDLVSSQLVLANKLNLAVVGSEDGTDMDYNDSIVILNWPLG , if possible.
[A] -0.334
